Sourced from the supplement of paper PMC10567573

B1: FCHO1 (parent)
chain: HLELTRKLQDLIKDVLRYGEEQLK

- Variants of: B1
- method.summary: protein stability index of a GFP-peptide fusion (GPS, HEK-293T) (PSI 1-6); higher = more stable;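 further: lentivirally expressed fusions sorted by FACS into six bins by GFP to DsRed ratio, PSI derived from sequencing read proportions per bin multiplied by bin number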
- test.context: c terminus: a fixed tail appended
reported.property: protein stability index
# answer = number (no unit)

Please report the measured protein stability index for "I12M"
2.25

Please report the measured protein stability index for "T5G"
2.48

Please report the measured protein stability index for "L4S"
2.76

Please report the measured protein stability index for "E20A"
2.69

Please report the measured protein stability index for "V15M"
3.23

Please report the measured protein stability index for "E20C"
2.57

Please report the measured protein stability index for "R6K"
2.69

Please report the measured protein stability index for "D14E"
2.9
